Reported GI50 by item:
System: IGROV-1
Assay: NCI tumour cell line growth inhibition, 48 h
The source made the active and inactive calls. No stated cut-off is given here; in the data, active = GI50 up to about 1.1 µM and inactive = higher.

>  <compound>
O=C(O)Cc1ccccc1

>  <GI50>
> 100 µM (inactive)

$$$$
>  <compound>
COc1ccc(N2C(=O)CC(c3c[nH]c4ccccc34)C2=O)cc1 (centres undefined)

>  <GI50>
> 100 µM (inactive)

$$$$
>  <compound>
Cn1ncc2c(Nc3ccc(Cl)cc3)c3ccccc3nc21

>  <GI50>
21.2 µM (inactive)

$$$$
>  <compound>
CCc1c(C)[nH]c2c1/C(=N/N=C1\CCCc3[nH]c(C)c(CC)c31)CCC2

>  <GI50>
20 µM (inactive)

$$$$
>  <compound>
O=C(/C=C/c1c(O)ccc2ccccc12)c1ccccc1Cl

>  <GI50>
55.5 µM (inactive)

$$$$
>  <compound>
O=C1CSC2(CC(/C=C/c3cccc(Br)c3)=NN2c2cccc(S(=O)(=O)O)c2)N1c1nc2ccccc2s1 (centres undefined)

>  <GI50>
58.6 µM (inactive)

$$$$

Q: # value lookup — system IGROV-1, readout GI50, item COc1cc([N+](=O)[O-])c(S(=O)(=O)[O-])cc1-[n+]1nc(C(=O)Nc2ccccc2)nn1-c1ccc([N+](=O)[O-])c(S(=O)(=O)O)c1
A: > 100 µM (inactive)

Q: Similarly, CCc1cccc(C(C)C)c1NC(=O)C(=O)Nn1c(S)nc2ccccc2c1=O ?
A: 59.4 µM (inactive)

Q: // repeat for Clc1ccc(OCc2nnc(CCCCCCCCc3nnc(COc4ccc(Cl)cc4)n3Nc3ccccc3)n2Nc2ccccc2)cc1 and report
A: 7.23 µM (inactive)
